Each recorded value in this set is attributed to PubChem BioAssay AID1919002.

Measured viability, T/C, listed per entry for reference.
Test system: 743489-274-T-PDC complex spheroid growth;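 also: spheroids exposed to agents for 7 days before readout; 100% = DMSO vehicle control wells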
Assay: Anticancer human tumor 743489-274-T-PDC patient-derived renal cell carcinoma cell line growth inhibition [AhR]
Settings: second compound 10 µM; first compound 0.1 µM; hits give low values

molecule	viability, T/C [%]
CC(C)c1c(-c2ccccc2)nc2c(C#N)c[nH]n2c1=O + Cc1cncc(-c2nc(NCCc3c[nH]c4ccccc34)c3ncn(C(C)C)c3n2)c1	141
CC1COCCN1c1cc(C2(S(C)(=N)=O)CC2)nc(-c2ccnc3[nH]ccc23)n1 (stereo not drawn) + Cc1cncc(-c2nc(NCCc3c[nH]c4ccccc34)c3ncn(C(C)C)c3n2)c1	117
COc1ccc([C@@H](O)c2cc(-c3ncnc4cc(N5CCOCC5)ccc34)c(F)cc2Cl)nn1 + Cc1ccccc1N=Nc1ccc(NC(=O)c2ccnn2C)c(C)c1	90.2
